Target: T1, human Factor XIIa-beta (human, UniProt P00748 354-615, limits assumed)
T1 construct: Bought from Enzyme Research Laboratories; also called FXIIa beta; FXIIa-beta
T1 sequence: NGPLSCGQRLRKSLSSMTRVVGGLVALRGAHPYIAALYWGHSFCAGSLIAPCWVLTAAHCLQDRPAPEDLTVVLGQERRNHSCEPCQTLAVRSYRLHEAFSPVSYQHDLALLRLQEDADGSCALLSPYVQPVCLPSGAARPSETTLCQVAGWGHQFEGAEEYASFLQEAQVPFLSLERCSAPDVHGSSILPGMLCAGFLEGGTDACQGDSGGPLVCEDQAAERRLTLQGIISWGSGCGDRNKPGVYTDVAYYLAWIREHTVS
Test: SPR (Biacore), purified IgG4 captured on anti-human IgG, FXIIa beta 0-40 nM, 1:1 fit, 25 C
reported.property: kon (M⁻¹ s⁻¹)
API: value field is a number in M⁻¹ s⁻¹; no unit string.

Supply kon value. Item: VR110 (antibody, V domains shown) VH: EVQLLESGGGLVQPGGSLRLSCAASGFTFSKYIMQWVRQAPGKGLEWVSGIDMPTKGTVYADSVKGRFTISRDNSKNTLYLQMNSLRAEDTAVYYCARALPRSGYLISPHYYYYALDVWGQGTTVTVSS VL: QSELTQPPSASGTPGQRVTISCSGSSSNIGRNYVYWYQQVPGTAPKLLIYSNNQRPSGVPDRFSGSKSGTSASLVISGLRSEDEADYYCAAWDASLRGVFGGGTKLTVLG
110000
